assay remarks: Pharmacokinetic study in mice, single IP dose, serum
Format: in vivo, female C57BL/6 mice
measurement conditions: female, C57BL/6; mouse, single IP dose 50 mg·kg^−1, serum; read-out: t0.5 Elimination half-life, Final Estimate (CV%)

smiles structure	unit abbreviation	half-life
Cn1c(=O)c2c(nc(NCCc3ccccc3)n2CCCC(=O)NN=Cc2ccc(O)c(O)c2O)n(C)c1=O	min	14.7

====

assay remarks: Pharmacokinetic study in mice, single IP dose, serum
Format: in vivo, female C57BL/6 mice
measurement conditions: female, C57BL/6; mouse, single IP dose 50 mg·kg^−1, serum; read-out: CLT/F Apparent clearance, Final Estimate (CV%)
quantity kind: CL/F (mL/min/kg)

smiles structure	quantity kind	obs value
Cn1c(=O)c2c(nc(NCCc3ccccc3)n2CCCC(=O)NN=Cc2ccc(O)c(O)c2O)n(C)c1=O	CL/F	1020

====

measured on: hrPDE3A (Homo sapiens)
Construct: purchased SignalChem, Richmond, Canada
Sequence (Q14432 whole entry): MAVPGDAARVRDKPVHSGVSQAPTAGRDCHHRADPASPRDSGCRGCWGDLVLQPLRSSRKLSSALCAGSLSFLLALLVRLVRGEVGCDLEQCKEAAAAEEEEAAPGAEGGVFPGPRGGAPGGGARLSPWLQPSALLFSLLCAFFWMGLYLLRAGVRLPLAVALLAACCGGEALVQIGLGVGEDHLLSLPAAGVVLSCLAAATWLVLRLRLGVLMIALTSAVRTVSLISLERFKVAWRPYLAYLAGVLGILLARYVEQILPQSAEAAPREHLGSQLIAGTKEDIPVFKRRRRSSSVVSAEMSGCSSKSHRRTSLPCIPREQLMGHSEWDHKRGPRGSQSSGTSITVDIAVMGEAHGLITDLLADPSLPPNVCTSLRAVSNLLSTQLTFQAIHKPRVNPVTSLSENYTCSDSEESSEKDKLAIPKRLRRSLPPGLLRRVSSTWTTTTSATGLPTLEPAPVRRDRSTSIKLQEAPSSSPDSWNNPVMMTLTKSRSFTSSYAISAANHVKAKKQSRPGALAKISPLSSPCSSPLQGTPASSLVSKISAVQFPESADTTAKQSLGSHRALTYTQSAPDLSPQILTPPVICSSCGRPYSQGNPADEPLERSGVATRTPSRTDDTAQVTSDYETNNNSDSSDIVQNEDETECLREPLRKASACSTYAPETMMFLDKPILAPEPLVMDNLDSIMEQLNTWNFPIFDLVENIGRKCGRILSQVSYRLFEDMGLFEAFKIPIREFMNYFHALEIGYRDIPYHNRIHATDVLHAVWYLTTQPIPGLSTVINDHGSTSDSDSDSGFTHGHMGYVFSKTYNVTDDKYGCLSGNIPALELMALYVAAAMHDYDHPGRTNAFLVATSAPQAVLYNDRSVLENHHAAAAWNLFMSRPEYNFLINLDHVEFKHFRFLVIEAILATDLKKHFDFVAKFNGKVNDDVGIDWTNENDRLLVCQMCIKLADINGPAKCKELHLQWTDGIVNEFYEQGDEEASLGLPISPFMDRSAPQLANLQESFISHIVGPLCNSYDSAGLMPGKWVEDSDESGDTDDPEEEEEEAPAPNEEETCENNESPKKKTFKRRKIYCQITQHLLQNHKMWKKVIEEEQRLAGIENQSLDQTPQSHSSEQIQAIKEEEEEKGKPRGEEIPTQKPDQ
assay remarks: PDE-Glo catalytic activity assay, PDE3A
Type: biochemical
measurement conditions: human recombinant PDE3A; CV% in brackets; read-out: IC50 (µM) Against PDE Isoform (CV%) PDE3A

compound	IC50 / µM
Cn1c(=O)c2c(nc(NCCc3ccccc3)n2CCCC(=O)NN=Cc2ccc(O)c(O)c2O)n(C)c1=O [Compound 34]	0.78

====

assay remarks: Pharmacokinetic study in mice, single IP dose, serum
Type: in vivo, female C57BL/6 mice
measurement conditions: female, C57BL/6; mouse, single IP dose 50 mg·kg^−1, serum; read-out: Cmax Maximum serum concentration, Final Estimate (CV%)
Method: Female Lewis rats and female C57BL/6 mice were administered IP with compound 34 dissolved in vehicle at a dose of 20 and 50 mg·kg^−1, respectively. […] Concentrations of compound 34 in rat and murine serum were quantified by an HPLC/UV method. […] The limit of quantification was 0.05 mg·L^−1. […] The mean extraction efficiencies of the analyzed compound and the IS were above 80%. […]
quantity kind: Cmax (ng/mL)

smiles structure	quantity kind	obs value
Cn1c(=O)c2c(nc(NCCc3ccccc3)n2CCCC(=O)NN=Cc2ccc(O)c(O)c2O)n(C)c1=O	Cmax	1370

====

assay remarks: Pharmacokinetic study in mice, single IP dose, serum
Type: in vivo, female C57BL/6 mice
measurement conditions: female, C57BL/6, serum, 50 mg·kg^−1; mouse, IP, solution in DMSO:PEG400:sterile water (10:40:50)

smiles structure	absorption half-life / min
Cn1c(=O)c2c(nc(NCCc3ccccc3)n2CCCC(=O)NN=Cc2ccc(O)c(O)c2O)n(C)c1=O	4.5

====

assay remarks: Pharmacokinetic study in rats, single IP dose, serum
Type: in vivo
measurement conditions: female, Lewis; rat, single IP dose 20 mg·kg^−1, serum; read-out: Cmax Maximum serum concentration, Final Estimate (CV%)

compound	Cmax (ng/mL)
Cn1c(=O)c2c(nc(NCCc3ccccc3)n2CCCC(=O)NN=Cc2ccc(O)c(O)c2O)n(C)c1=O [Compound 34]	1820

====

assay remarks: Pharmacokinetic study in rats, single IP dose, serum
Assay type: in vivo
measurement conditions: female, Lewis; rat, single IP dose 20 mg·kg^−1, serum; read-out: t0.5 Elimination half-life, Final Estimate (CV%)

compound	half-life
Cn1c(=O)c2c(nc(NCCc3ccccc3)n2CCCC(=O)NN=Cc2ccc(O)c(O)c2O)n(C)c1=O [Compound 34]	13.6 min

====

assay remarks: Pharmacokinetic study in rats, single IP dose, serum
Type: in vivo
measurement conditions: female, Lewis; rat, single IP dose 20 mg·kg^−1, serum; read-out: CLT/F Apparent clearance, Final Estimate (CV%)
quantity kind: CL/F (mL/min/kg)

compound	quantity kind	unit abbreviation	obs value
Cn1c(=O)c2c(nc(NCCc3ccccc3)n2CCCC(=O)NN=Cc2ccc(O)c(O)c2O)n(C)c1=O [Compound 34]	CL/F	mL/min/kg	440

====

assay remarks: Pharmacokinetic study in rats, single IP dose, serum
Assay type: in vivo
measurement conditions: female, Lewis; rat, single IP dose 20 mg·kg^−1, serum; read-out: AUC Area under the concentration-time curve, Final Estimate (CV%) (converted)

smiles structure	AUC, ng·h/mL
Cn1c(=O)c2c(nc(NCCc3ccccc3)n2CCCC(=O)NN=Cc2ccc(O)c(O)c2O)n(C)c1=O	752

====

assay remarks: Pharmacokinetic study in mice, single IP dose, serum
Assay type: in vivo, female C57BL/6 mice
measurement conditions: female, C57BL/6; mouse, single IP dose 50 mg·kg^−1, serum, one-compartment model; read-out: Vd/F Apparent volume of distribution, Final Estimate (CV%)
quantity kind: Vd/F (L/kg)

compound	quantity kind	unit abbreviation	obs value
Cn1c(=O)c2c(nc(NCCc3ccccc3)n2CCCC(=O)NN=Cc2ccc(O)c(O)c2O)n(C)c1=O [Compound 34]	Vd/F	L/kg	21.7
